Each recorded value in this set is attributed to paper PMC7321169.

tested on: BL-2 cells; experiment: Viability of suspension BL-2 cells (MTT); assay type: cell-based; details: BL2; 48 h incubation
Give pIC50 for every item shown.
Friendly reminder that pIC50 comes from taking -log10 of the concentration in mol/L.

Bench note: what pIC50 did CCCC[P+](c1ccccc1)(c1ccccc1)c1ccccc1 [control 12] show?
6.30

Which pIC50 value belongs to C#Cc1ccc(-c2c3ccc(=[N+](C)C)cc-3oc3cc(N(C)C)ccc23)c(C(=O)[O-])c1 [control 13] ?
4.46

* * *

test system: HDFa cells; assay: Viability of adherent HDFa cells (MTT); assay type: cell-based, human; conditions: 48 h incubation; normal cells
pIC50: −log10 of the molar value.
Readout Name: pIC50

Record lookup: for HDFa cells, what pIC50 belongs to COC(=O)CCCCCn1cc(CN(C(=O)OCc2ccc(B3OC(C)(C)C(C)(C)O3)cc2)[c-]2cccc2)nn1.[Fe+2].c1cc[cH-]c1 [prodrug 9] ?
< 4.30

* * *

system: A2780 cells; test: Viability of adherent A2780 cells (MTT); type: cell-based, human; details: Homo sapiens, A2780; 48 h incubation
pIC50: −log10 of the molar value.
Readout Name: pIC50

// lookup pIC50 for C#Cc1ccc(-c2c3ccc(=[N+](C)C)cc-3oc3cc(N(C)C)ccc23)c(C(=O)[O-])c1 [control 13]
< 4.30

* * *

test system: BL-2 cells; assay: Viability of suspension BL-2 cells (MTT); format: cell-based; details: 48 h incubation
Readout Name: pIC50
Entry type: numeric. Quantity: pIC50, the -log10 of concentration in molar units.

Bench note: what pIC50 did COC(=O)CCCCCn1cc(CN(C(=O)OCc2ccc(B3OC(C)(C)C(C)(C)O3)cc2)[c-]2cccc2)nn1.[Fe+2].c1cc[cH-]c1 [prodrug 9] show?
4.46
